A collection of compounds and their measured melting point
measuredQuantity: melting point (°C)

>>> print(df.to_string())
                               recordsmiles  measuredquantity  resultvalue
0  CCCCn1ccc(-c2ccc(Oc3cccnc3C)c(F)c2)c(C#N)c1=O     melting point        104.8
1  Cc1cc(Oc2ccc(-c3ccn(CCC4CC4)c(=O)c3C#N)c(F)c2)ccn1     melting point        110.7
2  CCCCn1ccc(-c2ccc(Oc3cccnc3C)cc2)c(C#N)c1=O     melting point        136.7
3  CCCCn1ccc(-c2ccc(Oc3cc(C)nc(C)c3)cc2F)c(C#N)c1=O     melting point        169.9
4  Cc1ncccc1Oc1ccc(-c2ccn(CCC3CC3)c(=O)c2C#N)cc1F     melting point        145.8
5  Cc1ccc(Oc2ccc(-c3ccn(CC4CC4)c(=O)c3C#N)cc2F)c(C)n1     melting point        152.7
6  Cc1cc(Oc2ccc(-c3ccn(CC4CC4)c(=O)c3C#N)cc2F)cc(C)n1     melting point        201.2
7  Cc1cc(C)nc(Oc2ccc(-c3ccn(CC4CC4)c(=O)c3C#N)c(F)c2)c1     melting point          137
8  CCCCn1ccc(-c2ccc(Oc3ccnc(C)c3)cc2F)c(C#N)c1=O     melting point        127.1
9  CCCCn1ccc(-c2ccc(Oc3ccc(C)nc3C)c(F)c2)c(C#N)c1=O     melting point        156.4

The values you see were collected from patent US9067891B2.
